Values were extracted from paper PMC5732184.

target-entity: T1, His-bHLH34 (Arabidopsis thaliana, UniProt Q9LTC7 1-320)
T1 sequence: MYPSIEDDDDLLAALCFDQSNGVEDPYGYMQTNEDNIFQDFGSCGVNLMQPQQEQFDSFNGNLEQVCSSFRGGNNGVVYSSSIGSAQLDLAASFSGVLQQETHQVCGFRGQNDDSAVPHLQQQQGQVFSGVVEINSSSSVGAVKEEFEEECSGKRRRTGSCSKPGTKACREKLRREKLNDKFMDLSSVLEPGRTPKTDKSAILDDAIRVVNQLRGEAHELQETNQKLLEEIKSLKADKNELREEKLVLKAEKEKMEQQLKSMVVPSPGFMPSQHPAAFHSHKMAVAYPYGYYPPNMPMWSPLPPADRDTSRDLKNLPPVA
test-name: EMSA; 10 mM Tris-HCl pH 7.5, 50 mM KCl, 1 mM EDTA, 1 mM DTT, 2.5% glycerol, 1 ug poly(dI-dC), 100 ng protein, 0.3 pmol DNA in 20 uL; 25 C 20 min; 5% native PAGE in TBE at 4 C
study-conditions: protein: recombinant; tags: His tag (pET300/NT-DEST); chain copies: 2; label: 32P; blunt

# binder, binding result
records = [
    ("DBE1 (dsDNA) DNA 1: AGAAGAGACGGC DNA 2: GCCGTCTCTTCT", "binds"),
    ("DBE1 m1 (dsDNA) DNA 1: AGAATAGACGGC DNA 2: GCCGTCTATTCT", "no binding"),
    ("DBE1 m3 (dsDNA) DNA 1: AGAAGATACGGC DNA 2: GCCGTATCTTCT", "no binding"),
    ("DBE4 (dsDNA) DNA 1: CTTAGAGAGGAG DNA 2: CTCCTCTCTAAG", "binds"),
    ("DBE3 (dsDNA) DNA 1: AAATGAGAGGAT DNA 2: ATCCTCTCATTT", "binds"),
    ("DBE2 (dsDNA) DNA 1: CCAGGAGAGGTT DNA 2: AACCTCTCCTGG", "binds"),
    ("DBE1 m2 (dsDNA) DNA 1: AGAAGTGACGGC DNA 2: GCCGTCACTTCT", "no binding"),
]
